// provenance: patent US20250041429A1

# TARGET: BTK protein (Homo sapiens, UniProt Q06187)
# Construct: endogenous in cells; host or cells: TMD-8 cells
# Sequence (Q06187 whole entry): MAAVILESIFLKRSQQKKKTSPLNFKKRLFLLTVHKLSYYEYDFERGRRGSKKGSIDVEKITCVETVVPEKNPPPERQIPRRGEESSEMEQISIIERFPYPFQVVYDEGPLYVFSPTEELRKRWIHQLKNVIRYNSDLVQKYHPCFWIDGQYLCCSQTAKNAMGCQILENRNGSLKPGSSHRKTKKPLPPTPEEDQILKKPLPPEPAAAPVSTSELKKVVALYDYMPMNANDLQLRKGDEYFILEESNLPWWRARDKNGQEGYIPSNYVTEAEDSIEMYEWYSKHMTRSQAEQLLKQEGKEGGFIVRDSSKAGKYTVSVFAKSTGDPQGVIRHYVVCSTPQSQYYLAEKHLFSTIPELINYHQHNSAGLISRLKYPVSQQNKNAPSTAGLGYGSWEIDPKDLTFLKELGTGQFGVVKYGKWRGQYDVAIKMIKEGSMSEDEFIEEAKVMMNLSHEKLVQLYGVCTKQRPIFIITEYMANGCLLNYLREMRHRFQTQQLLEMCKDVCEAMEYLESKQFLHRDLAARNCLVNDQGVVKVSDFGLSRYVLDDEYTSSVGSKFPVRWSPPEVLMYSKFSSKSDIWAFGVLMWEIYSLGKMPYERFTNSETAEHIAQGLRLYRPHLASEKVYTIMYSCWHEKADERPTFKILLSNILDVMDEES
# TEST NAME: Measurement of BTK protein degradation ability in TMD-8 cells (Western blotting)
# Format: cell-based
# STUDY CONDITIONS: compound 10 nM, harvested after 24 hours
MEASURED METRIC: BTK degradation (%) 10 nM

MOLECULE	BTK degradation (%) 10 nM
Cc1cc(-c2ccnc(Nc3ccc(N4CCN(CC5CCN(CC(=O)Nc6cccc(NC7CCC(=O)NC7=O)c6)CC5)CC4)cc3)n2)ccc1CNC(=O)N1CC(OC(C)C)C1 (centres unmarked)	91.5
Cc1cc(-c2ccnc(Nc3ccc(N4CCC(CN5CCC(c6ccc(OC7CCC(=O)NC7=O)cc6)CC5)CC4)nc3)n2)ccc1CNC(=O)N1CC(OC(C)C)C1 (centres unmarked)	77.0
Cc1cc(-c2ccnc(Nc3ccc(N4CCN(CC5CN(C(=O)c6cccc(NC7CCC(=O)NC7=O)c6)C5)CC4)cc3)n2)ccc1CNC(=O)N1CC(OC(C)C)C1 (centres unmarked)	94.5
Cc1cc(-c2ccnc(Nc3ccc(N4CCN(CC5CCN(c6cccc(N7CCC(=O)NC7=O)c6)CC5)CC4)nc3)n2)ccc1CNC(=O)c1cnn(C(C)C)c1	87.5
Cc1cc(-c2ccnc(Nc3ccc(C4CCN(CC5CCN(c6ccc(NC7CCC(=O)NC7=O)cn6)CC5)CC4)cc3)n2)ccc1CNC(=O)N1CC(OC(C)C)C1 (centres unmarked)	86.7

----------
# TARGET: BTK protein (Homo sapiens, UniProt Q06187)
# Construct: endogenous in cells; host or cells: TMD-8 cells
# TEST NAME: Measurement of BTK protein degradation ability in TMD-8 cells (Western blotting)
# Assay type: cell-based
# STUDY CONDITIONS: compound 10 nM, harvested after 24 hours
MEASURED METRIC: BTK degradation (%) 10 nM

COMPOUND	TARGET	UOM	BTK degradation (%) 10 nM
Cc1cc(-c2ccnc(Nc3ccc(N4CCN(CC5CCN(c6ccc7c(c6)C(=O)N(C6CCC(=O)NC6=O)C7=O)CC5)CC4)cc3)n2)ccc1CNC(=O)c1cnn(C(C)C)c1 (centres unmarked)	BTK protein (Homo sapiens, UniProt Q06187)	%	93.5
Cc1cc(-c2ccnc(Nc3ccc(CN4CCN(CC5CCN(c6ccc(N7CCC(=O)NC7=O)cc6)CC5)CC4)cc3)n2)ccc1CNC(=O)c1cn(C(C)(C)C)nn1	BTK protein (Homo sapiens, UniProt Q06187)	%	87.0
Cc1cc(-c2ccnc(Nc3ccc4c(c3)CN(CC3CCN(c5ccc6c(c5)C(=O)N(C5CCC(=O)NC5=O)C6=O)CC3)CC4)n2)ccc1CNC(=O)c1cnn(C(C)(C)C)c1 (centres unmarked)	BTK protein (Homo sapiens, UniProt Q06187)	%	84.5
Cc1cc(-c2ccnc(Nc3ccc(N4CCN(CC5CCN(c6ccc(OC7CCC(=O)NC7=O)cc6)CC5)CC4)cc3)n2)ccc1CNC(=O)N1CC(OC(C)C)C1 (centres unmarked)	BTK protein (Homo sapiens, UniProt Q06187)	%	100.0
Cc1c(NC(=O)N2CC(OC(C)C)C2)cc(F)cc1-c1ccnc(Nc2ccc(N3CCN(CC4CCN(c5ccc6c(n5)CN(C5CCC(=O)NC5=O)C6=O)CC4)CC3)cc2)n1 (centres unmarked)	BTK protein (Homo sapiens, UniProt Q06187)	%	76
Cc1cc(-c2ccnc(Nc3ccc(N4CCN(C5CCN(C(=O)c6cccc(NC7CCC(=O)NC7=O)c6)CC5)CC4)cc3)n2)ccc1CNC(=O)N1CC(OC(C)C)C1 (centres unmarked)	BTK protein (Homo sapiens, UniProt Q06187)	%	69.0
Cc1cc(-c2ccnc(Nc3ccc(N4CCN(CC5CCN(c6cccc(NC7CCC(=O)NC7=O)c6)CC5)CC4)cc3)n2)ccc1CNC(=O)c1cnn(C(C)C)c1 (centres unmarked)	BTK protein (Homo sapiens, UniProt Q06187)	%	95.0
Cc1cc(-c2ccnc(Nc3ccc(N4CCN(CC5CN(c6cc7c(cc6F)C(=O)N(C6CCC(=O)NC6=O)C7=O)C5)CC4)cc3)n2)ccc1CNC(=O)N1CC(OC(C)C)C1 (centres unmarked)	BTK protein (Homo sapiens, UniProt Q06187)	%	91
